Value source: patent US11053253B2

Quick record of IC50 values for Human Factor D (Homo sapiens (Human), UniProt P00746).

Per the records, this compound ( CC(=O)c1nn2c3c(cc(-c4cnc(C)nc4)cc13)CC=CCCCC(=O)NC[C@]1(F)C[C@@H](C(=O)Nc3nc(C(F)(F)F)ccc3C)N(C1)C(=O)C2 ) has IC50 equal to > 10 µM

Measured IC50, CC(=O)c1nn(CC(=O)N2[C@H]3C[C@@]4(CNC(=O)C(F)(F)CCCOCc5ccc(Br)nc5NC3=O)C[C@@H]24)c2ccc(-c3cnc(C)nc3)cc12 : < 1 µM

// recorded IC50 for CC(=O)c1nn2c3c(cc(-c4cnc(C)nc4)cc13)CCCCCCCCOC[C@@]13C[C@@H](C(=O)Nc4nc(Br)ccc4C)N(C(=O)C2)[C@@H]1C3 : < 1 µM

Record CC(=O)c1nn2c3c(cc(-c4cnc5ccnn5c4)cc13)CCCCCCC(=O)NC[C@@]13C[C@@H](C(=O)Nc4nc(C(F)(F)F)ccc4C)N(C(=O)C2)[C@@H]1C3 , field IC50: < 1 µM

// IC50 lookup, compound = CC(=O)c1nn2c3cc(c(-c4cnc(C)nc4)cc13)OCCC/C=C\COC[C@@]13C[C@@H](C(=O)Nc4nc(Br)ccc4C)N(C(=O)C2)[C@@H]1C3 , result: < 1 µM
